Quick record: IC50, Tyrosine-protein phosphatase non-receptor type 11 (Homo sapiens, UniProt Q06124).

smilesText	IC50
O=C(O)C(=O)Nc1ccc(C#Cc2ccc3ccccc3c2)cc1	> 50 µM
O=C(O)C(=O)Nc1ccc(C#Cc2ccc(C(F)(F)F)cc2)cc1	> 50 µM
N#Cc1ccc(C#Cc2ccc(NC(=O)C(=O)O)cc2)cc1	> 50 µM
O=C(O)C(=O)Nc1ccc(C#Cc2ccc(O)cc2)cc1	> 50 µM
O=C(O)C(=O)Nc1ccc(CCc2ccc(C(F)(F)F)cc2)cc1	> 30 µM
COC(=O)c1ccc(C#Cc2ccc(NC(=O)C(=O)O)cc2)cc1O	> 50 µM
